Listed below: IC50 values for each entry.
system: human breast cancer cells KPL-4; test: Cytotoxicity test for compounds (CellTiter-Glo cell proliferation inhibition); type: cell-based; details: Homo sapiens, KPL4, 72 h, read-out: KPL-4/IC50 (nM)

These recorded examples may help you get a feel for the data.
Briefly, IC50 measured for C=CC(Cc1cccc(N)c1)OC(=O)[C@H](C)[C@@H](OC)[C@@H]1CCCN1C(=O)C[C@@H](OC)[C@H]([C@@H](C)CC)N(C)C(=O)[C@@H](NC(=O)[C@H](C(C)C)N(C)C)C(C)C (stereo partly drawn) : < 0.0256 nM

Briefly, IC50 measured for CC[C@H](C)[C@@H]([C@@H](CC(=O)N1CCC[C@H]1[C@H](OC)[C@@H](C)C(=O)O[C@@H](Cc1cccc(N)c1)C(F)F)OC)N(C)C(=O)[C@@H](NC(=O)[C@H](C(C)C)N(C)C)C(C)C : < 0.0256 nM

Kindly review the next molecule as well.
Briefly, IC50 measured for CC[C@H](C)[C@@H]([C@@H](CC(=O)N1CCC[C@H]1[C@H](OC)[C@@H](C)C(=O)O[C@H](CO)Cc1cccc(N)c1)OC)N(C)C(=O)[C@@H](NC(=O)[C@H](C(C)C)N(C)C)C(C)C : 1.13 nM

----------
Listed below: IC50 values for each entry.
Test system: human breast cancer cells MDA-MB-468
Assay: Cytotoxicity test for compounds (CellTiter-Glo cell proliferation inhibition)
Format: cell-based
Details: Homo sapiens, MDA-MB-468, 72 h, read-out: MDA-MD-468/IC50 (nM)
Protocol: Biological Test Example 1: Cytotoxicity Test for Compounds • 96-well clear flat-bottom white plate (Corning, #3610) • RPMI1640 culture medium (Gibco, #A10491-01) • Fetal Bovine Serum (Sigma-Aldrich, #F8687-500ML) • CellTiter-Glo® Luminescent Cell Viability Assay (Promega, # G7572/G7571) […] After 3 days of incubation, 100.0 µL/well of CellTiter-Glo™ (Promega, Cat. No.: G7572/G7571) working solution was added. […] After 10 min, the plate was read on a microplate reader. […]
Numbers only; they are read as nM.

Briefly, IC50 measured for CC[C@H](C)[C@@H]([C@@H](CC(=O)N1CCC[C@H]1[C@H](OC)[C@@H](C)C(=O)O[C@H](CO)Cc1cccc(N)c1)OC)N(C)C(=O)[C@@H](NC(=O)[C@H](C(C)C)N(C)C)C(C)C : 3.82

Next:
Briefly, IC50 measured for C=C(C)C(Cc1cccc(N)c1)OC(=O)[C@H](C)[C@@H](OC)[C@@H]1CCCN1C(=O)C[C@@H](OC)[C@H]([C@@H](C)CC)N(C)C(=O)[C@@H](NC(=O)[C@H](C(C)C)N(C)C)C(C)C (stereo partly shown) : 0.11

Briefly, IC50 measured for CC[C@H](C)[C@@H]([C@@H](CC(=O)N1CCC[C@H]1[C@H](OC)[C@@H](C)C(=O)O[C@H](CN=[N+]=[N-])Cc1cccc(N)c1)OC)N(C)C(=O)[C@@H](NC(=O)[C@H](C(C)C)N(C)C)C(C)C : 2.74

----------
tested on: human breast cancer cells MDA-MB-468; assay: Cytotoxicity test for compounds (CellTiter-Glo cell proliferation inhibition); type: cell-based; details: Homo sapiens, MDA-MB-468, 72 h, 3 days of incubation; CellTiter-Glo; read-out: MDA-MD-468/IC50
recorded_endpoint: log10 IC50 (log10 of the value in nM)
A value of 2 here means IC50 of 100 in nM, since values are log10.

// log10 IC50 (human breast cancer cells MDA-MB-468) for CC[C@H](C)[C@@H]([C@@H](CC(=O)N1CCC[C@H]1[C@H](OC)[C@@H](C)C(=O)N(O)CCc1cccc(N)c1)OC)N(C)C(=O)[C@@H](NC(=O)[C@H](C(C)C)N(C)C)C(C)C = -0.25

// log10 IC50 (human breast cancer cells MDA-MB-468) for CC[C@H](C)[C@@H]([C@@H](CC(=O)N1CCC[C@H]1[C@H](OC)[C@@H](C)C(=O)N1CCS[C@H](c2cccc(N)c2)C1)OC)N(C)C(=O)[C@@H](NC(=O)[C@H](C(C)C)N(C)C)C(C)C (single isomer, unassigned) [Example 60-P1] = 0.90

Next:
// log10 IC50 (human breast cancer cells MDA-MB-468) for CC[C@H](C)[C@@H]([C@@H](CC(=O)N1CCC[C@H]1[C@H](OC)[C@@H](C)C(=O)N[C@H](CCl)Cc1cccc(N)c1)OC)N(C)C(=O)[C@@H](NC(=O)[C@H](C(C)C)N(C)C)C(C)C = -0.20

// log10 IC50 (human breast cancer cells MDA-MB-468) for CC[C@H](C)[C@@H]([C@@H](CC(=O)N1CCC[C@H]1[C@H](OC)[C@@H](C)C(=O)O[C@@H](C)Cc1cccc(N)c1)OC)N(C)C(=O)[C@@H](NC(=O)[C@H](C(C)C)N(C)C)C(C)C = 1.07

// log10 IC50 (human breast cancer cells MDA-MB-468) for C#C[C@H](Cc1cccc(N)c1)NC(=O)[C@H](C)[C@@H](OC)[C@@H]1CCCN1C(=O)C[C@@H](OC)[C@H]([C@@H](C)CC)N(C)C(=O)[C@@H](NC(=O)[C@H](C(C)C)N(C)C)C(C)C = -0.44

----------
test system: human breast cancer cells MDA-MB-468; assay: Cytotoxicity test for compounds (CellTiter-Glo cell proliferation inhibition); format: cell-based; settings: Homo sapiens, MDA-MB-468, 72 h, 3 days of incubation; CellTiter-Glo; read-out: MDA-MD-468/IC50
pIC50: −log10 of the molar value. Non-standard residues stand in square brackets, D forms with d. Residues, ends and D or L forms follow the SMILES beside them. *: point of attachment. Dolaproine = CO[C@@H]([C@@H]1CCCN1)[C@@H](C)C(=O)O; Dil = CC[C@H](C)[C@H](NC)[C@@H](CC(=O)O)OC; Phe(3-NH2) = Nc1cccc(C[C@H](N)C(=O)O)c1; NMe2Val = CC(C)[C@@H](C(=O)*)N(C)C
Param threshold (8) applies to pIC50; output criterion met when value >= threshold, criterion not met when value < threshold.

Below are worked cases with known answers.
Enquiry: Reported pIC50 at or above 8? CCC(C)C(C(CC(=O)N1CCCC1C(OC)C(C)C(=O)OC(Cc1cccc(N)c1)C(=O)NC)OC)N(C)C(=O)C(NC(=O)C(C(C)C)N(C)C)C(C)C (stereo not drawn)
Return: criterion met

Enquiry: Reported pIC50 at or above 8? CC[C@H](C)[C@@H]([C@@H](CC(=O)N1CCC[C@H]1[C@H](OC)[C@@H](C)C(=O)O[C@H](CC#N)Cc1cccc(N)c1)OC)N(C)C(=O)[C@@H](NC(=O)[C@H](C(C)C)N(C)C)C(C)C
Return: criterion met

Enquiry: Reported pIC50 at or above 8? C#CC(Cc1cccc(N)c1)OC(=O)[C@H](C)[C@@H](OC)[C@@H]1CCCN1C(=O)C[C@@H](OC)[C@H]([C@@H](C)CC)N(C)C(=O)[C@@H](NC(=O)[C@H](C(C)C)N(C)C)C(C)C (single isomer, unassigned)
Return: criterion met

Enquiry: Reported pIC50 at or above 8? CC[C@H](C)[C@@H]([C@@H](CC(=O)N1CCC[C@H]1[C@H](OC)[C@@H](C)C(=O)OC(/C=C/C(=O)OC)Cc1cccc(N)c1)OC)N(C)C(=O)[C@@H](NC(=O)[C@H](C(C)C)N(C)C)C(C)C (single isomer, unassigned)
Return: criterion met

Next:
Enquiry: Reported pIC50 at or above 8? CC[C@H](C)[C@@H]([C@@H](CC(=O)N1CCC[C@H]1[C@H](OC)[C@@H](C)C(=O)N1CCSC(c2cccc(N)c2)C1)OC)N(C)C(=O)[C@@H](NC(=O)[C@H](C(C)C)N(C)C)C(C)C (single isomer, unassigned) [Example 60-P2]
Return: criterion met

Enquiry: Reported pIC50 at or above 8? CC[C@H](C)[C@@H]([C@@H](CC(=O)N1CCC[C@H]1[C@H](OC)[C@@H](C)C(=O)N[C@@H](Cc1cccc(N)c1)C(N)=O)OC)N(C)C(=O)[C@@H](NC(=O)[C@H](C(C)C)N(C)C)C(C)C [Example 3] (NMe2Val-V[Dil][Dolaproine][Phe(3-NH2)]-NH2)
Return: criterion not met

Enquiry: Reported pIC50 at or above 8? CC[C@H](C)[C@@H]([C@@H](CC(=O)N1CCC[C@H]1[C@H](OC)[C@@H](C)C(=O)N1CCS(=O)(=O)[C@H](c2cccc(N)c2)C1)OC)N(C)C(=O)[C@@H](NC(=O)[C@H](C(C)C)N(C)C)C(C)C (single isomer, unassigned) [Example 61-P1]
Return: criterion not met

Enquiry: Reported pIC50 at or above 8? C=CCN(C(=O)[C@H](C)[C@@H](OC)[C@@H]1CCCN1C(=O)C[C@@H](OC)[C@H]([C@@H](C)CC)N(C)C(=O)[C@@H](NC(=O)[C@H](C(C)C)N(C)C)C(C)C)[C@H](CC#N)Cc1cccc(N)c1
Return: criterion met

Reference for the values: patent EP4786483A1
